Test: Half life period was determined for the compound at 20 mg/kg concentration, oral route in dog(beagle)
Format: ADME, organism-based, Canis lupus familiaris
Parameters: dose 20 mg/kg, route oral
Details: in vivo
QUANTITY NAME: half-life

Request: Consider the compound `CN1CCN(c2c(F)cc3c(=O)c(C(=O)O)cn4c3c2SCC4)CC1` and give its measured half-life.
Response: 12 h

---

Assay: Ratio of tissue (heart) levels to plasma levels after 1 hr of treatment
Type: ADME
QUANTITY NAME: Kp at 1 h
Number only, please.

Request: Consider the compound `CN1CCN(c2c(F)cc3c(=O)c(C(=O)O)cn4c3c2SCC4)CC1` and give its measured Kp at 1 h.
Response: 3

The origin of these recorded values is ChEMBL document CHEMBL1123921.
